The measured values listed here are drawn from patent US4432987A.

Experiment Summary: Apparent solubility of sultamicillin salts in water and simulated gastric juice (without pepsin, pH 1.2), HPLC
Assay type: physicochemical
Experimental Setup: final pH of the solubility test in water; benzenesulfonate dihydrate

Compound | Final pH, Water
CC1(C)S[C@@H]2[C@H](NC(=O)[C@H](N)c3ccccc3)C(=O)N2[C@H]1C(=O)OCOC(=O)[C@@H]1N2C(=O)C[C@H]2S(=O)(=O)C1(C)C [Benzenesulfonate.2H2 O, benzenesulfonate dihydrate] | 3.4
